Recorded composite z-score by entry
System: Chordin-like protein 2 (CHRDL2)
Test Protocol: CHRDL2 small-molecule binders, primary screen, biochemical, small-molecule microarray, 635 nm fluorescence (AID 1126);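 note: printed compound slides probed with Chrdl2 protein at 4 µg/mL for 1 h at 4 C; score merges 667 nm emission intensity with signal to noise over three replicate slides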
Experimental Parameters: small-molecule microarray binding, fluorescence 635 nm; higher = more signal
Kindly provide the number alone.

CC(C)c1ccc(NN2C(C(O)Cc3ccccc3)C=CC3C(=O)N(c4ccccc4)C(=O)C32)cc1 (configuration not stated) :: -0.209
O=C(CS)NCCCCCCNC(=O)[C@@H]1C[C@@H]2C(=O)NCC(=O)N2[C@@H]1c1ccc(O)cc1 :: -0.134

From here, focus on the item given below.
// lookup composite z-score for "COC(=O)[C@@]1(Cc2ccc(OC)cc2)[C@H]2c3cc(C(=O)N4CCCC4)n(Cc4ccc(S(C)(=O)=O)cc4)c3C[C@H]2CN1C(=O)c1ccccc1"
-0.737

The reported numbers originate from PubChem BioAssay.
